Decision: melting point beneath 200 °C gives True; melting point meeting or exceeding 200 °C gives False.

Query: Field: below-cutoff. Rule: recorded melting point strictly less than 200 °C. Subject: `COc1cccc2cc(C(C)=O)oc12`
Reply: True

Query: Determine if `O=[N+]([O-])c1ccc(N=Nc2ccc(O)c3ccccc23)cc1` shows melting point strictly lower than 200 °C.
Reply: False

Query: Would you kindly verify if melting point of `CCO/C=N/c1c(C(=O)OCC)sc2sc(C(=O)OCC)c(/N=C/OCC)c12` is strictly less than 200 °C?
Reply: False

Query: Record `CCCCCC(C)(C)C` : is its melting point strictly below 200 °C?
Reply: True

Query: For `O=S1(=O)CCN(CN2CCS(=O)(=O)NC2)CN1` , is the recorded melting point below the cut-off of 200 °C?
Reply: True

Query: hey, is melting point for `O=C(Nc1ccccc1)C(c1ccccc1)c1ccccc1` lower than 200 °C or not?
Reply: True

Query: Is melting point of CC(C)C1=C(O)C(=O)C2=C(C=CC3C(C)(C)CCCC23C)C1=O (centres undefined) strictly below 200 °C?
Reply: True

Query: Strictly below 200 °C in melting point? `CCCCCCCCCCCCCCCCC(=O)OCC`
Reply: True

Query: Confirm or reject: melting point of CC12CCC(=O)C=C1CCC1C3CCC(O)(C(=O)CO)C3(C)CC(O)C12F (centres undefined) lies strictly below 200 °C
Reply: False

Query: # TODO verify melting point < 200 °C strictly for this compound: `O=C(NN=Cc1ccc([N+](=O)[O-])o1)c1ccc(O)cc1`
Reply: False

Query: Here's an entry: Nc1ncnc2c1ncn2C1CC(O)C(COP(=O)(O)O)O1 (centres undefined) . Is its melting point below 200 °C?
Reply: True

Query: # TODO verify melting point < 200 °C strictly for this compound: `CSc1ncccc1C(=O)Cl`
Reply: True

Query: is_below(melting point, 200 °C) for CCCOC(=O)C1=C(C)NC(=S)NC1c1ccco1 (centres undefined) ?
Reply: True

Query: For COc1ccc(C(O)c2ccccc2)cc1 (centres undefined) , is the recorded melting point below the cut-off of 200 °C?
Reply: True

Query: Consider the compound `CCNc1cc(O)ccc1C` . Is its melting point strictly less than 200 °C?
Reply: True
